Cited source for all entries: ChEMBL document CHEMBL1201862

- System: MDA-MB-231
- method_description: NCI tumour cell line growth inhibition, 48 h
Calls of active or inactive are those of the source. Rule as the data show it: active = GI50 up to about 1.1 µM and inactive = higher.
Use one of these outcomes when replying: True (active), False (inactive)

Hi, sorry to bother you, what did the test record for C/C(=N\NC(N)=O)C(CN(C)C)C(c1ccccc1)c1c(O)c2ccccc2oc1=O (configuration not stated) ? False

Hi, sorry to bother you, what did the test record for CCCCOC(=O)NC(c1ccccc1)C(O)C(=O)OC1C[C@@]2(O)C(OC(=O)c3ccccc3)C3[C@](C)(C(=O)[C@H](OC(C)=O)C(=C1C)C2(C)C)[C@@H](O)C[C@H]1OC[C@@]31OC(C)=O (some centres not stated) ? True

Hi, sorry to bother you, what did the test record for O=c1n(CC2CO2)c(=O)n(CC2CO2)c(=O)n1CC1CO1 (configuration not stated) [TEROXIRONE] ? False

Hi, sorry to bother you, what did the test record for `CCc1c[n+]2c(cc1C1=CN3c4ccccc4[C@]45CCN6C/C(=C/CO)[C@H](C[C@H]64)[C@@H]([C@@H]1O)[C@H]35)-c1[nH]c3ccccc3c1CC2` ? False

Hi, sorry to bother you, what did the test record for `Oc1cc(-c2cccc3ccccc23)nc2ncccc12` ? True

Hi, sorry to bother you, what did the test record for CCOC(=O)CCC(NC(=O)OCc1ccccc1)C(=O)NC(CCC(=O)OCC)C(=O)NC(CCC(=O)OCC)C(=O)NC(CCC(=O)OCC)C(=O)NC(CCC(=O)OCC)C(=O)NC(CCC(=O)OCC)C(=O)NC(CCC(=O)OCC)C(=O)OCC (configuration not stated) ? False

Hi, sorry to bother you, what did the test record for CCN(CC)C(=O)COc1cc2c(O)c3c(O)c(C)c4c(c13)C(=O)C(C)(OC=CC(OC)C(C)C(OC(C)=O)C(C)C(O)C(C)C(O)C(C)C=CC=C(C)C(=O)N2)O4 (configuration not stated) ? False

Hi, sorry to bother you, what did the test record for `CCCCSC1=N/C(=C\c2ccccc2O)C(Cl)=N1` ? False

Hi, sorry to bother you, what did the test record for `O=c1[nH]nc(Cc2ccccc2)n1/N=C/c1ccccc1Cl` ? False

Hi, sorry to bother you, what did the test record for `COc1cc(/C=C/C(=N\NC(N)=S)c2sc(NNC(C)=O)nc2C)ccc1O` ? False

Hi, sorry to bother you, what did the test record for `CN(C(=O)c1cc2c(s1)sc1c(=O)n(C)c3ccccc3c12)c1ccccc1` ? False

Hi, sorry to bother you, what did the test record for `Nc1onc2c1Cc1c(noc1N)-c1ccccc1-2` ? False

Hi, sorry to bother you, what did the test record for `O=C(/N=N/c1ccc(Br)cc1)NNc1ccc(Br)cc1` ? False

Hi, sorry to bother you, what did the test record for `O=C(Nc1noc(-c2ccccc2)n1)c1ccccc1CNc1noc(-c2ccccc2)n1` ? False

Hi, sorry to bother you, what did the test record for CCCCCCCCCCCCCCCCCCNc1nc(=O)n(C2CC(O)C(COP(=O)(O)O)O2)cc1F (configuration not stated) ? False

Hi, sorry to bother you, what did the test record for `CCSc1n/c(=C\c2ccco2)c2nnnn12` ? False

Hi, sorry to bother you, what did the test record for `CCOC(=O)CCc1cn2cc(Br)nc(OC)c2n1` ? False

Hi, sorry to bother you, what did the test record for `CN(c1ccccc1)S(=O)(=O)c1ccccc1[N+](=O)[O-]` ? False

Hi, sorry to bother you, what did the test record for `Cc1ccc([Se](=C(C(=O)c2ccccc2)C(=O)c2ccccc2)c2ccc(C)cc2)cc1` ? False

Hi, sorry to bother you, what did the test record for CC(=O)Oc1c(C)cc2c(c1C)C(C)CN2C(C)=O (configuration not stated) ? False

Hi, sorry to bother you, what did the test record for CC(C)CC1c2[nH]c3ccccc3c2C[C@H]2C(=O)NC(Cc3c[nH]c4ccccc34)C(=O)N12 (some centres not stated) ? False

Hi, sorry to bother you, what did the test record for `CN1CCC2(CC1)C(=O)N(N1CCCCCC1)C(=O)N2c1ccccc1` ? False

Hi, sorry to bother you, what did the test record for `COc1cc(-c2oc3c(OC)c(O)cc(O)c3c(=O)c2OC)ccc1O` ? False

Hi, sorry to bother you, what did the test record for `CCC/C(C)=N/NC(=S)SC.CCC/C(C)=N/NC(=S)SC.[Zn+2]` ? False

Hi, sorry to bother you, what did the test record for `Cc1ncc([N+](=O)[O-])n1CCNS(=O)(=O)CCCn1ncnc1[N+](=O)[O-]` ? False

Hi, sorry to bother you, what did the test record for `CC1=Nc2sc3c(c2C2=NCCN12)CCCC3` ? False

Hi, sorry to bother you, what did the test record for CC(=O)OCC1OC(O[C@@H]2C[C@H]3C(C)(C)[C@H](OC(C)=O)CC[C@]3(C)[C@H]3CC[C@]4(C)C(=CC[C@H]4[C@@H](C)C[C@@H](O)[C@H](O)C(C)(C)O)[C@@]32C)C(O)C(O)C1O (some centres not stated) ? False
